Data provenance is ChEMBL document CHEMBL1131747.

Target: Steryl-sulfatase (Homo sapiens, UniProt P08842)
Sequence (P08842 whole entry): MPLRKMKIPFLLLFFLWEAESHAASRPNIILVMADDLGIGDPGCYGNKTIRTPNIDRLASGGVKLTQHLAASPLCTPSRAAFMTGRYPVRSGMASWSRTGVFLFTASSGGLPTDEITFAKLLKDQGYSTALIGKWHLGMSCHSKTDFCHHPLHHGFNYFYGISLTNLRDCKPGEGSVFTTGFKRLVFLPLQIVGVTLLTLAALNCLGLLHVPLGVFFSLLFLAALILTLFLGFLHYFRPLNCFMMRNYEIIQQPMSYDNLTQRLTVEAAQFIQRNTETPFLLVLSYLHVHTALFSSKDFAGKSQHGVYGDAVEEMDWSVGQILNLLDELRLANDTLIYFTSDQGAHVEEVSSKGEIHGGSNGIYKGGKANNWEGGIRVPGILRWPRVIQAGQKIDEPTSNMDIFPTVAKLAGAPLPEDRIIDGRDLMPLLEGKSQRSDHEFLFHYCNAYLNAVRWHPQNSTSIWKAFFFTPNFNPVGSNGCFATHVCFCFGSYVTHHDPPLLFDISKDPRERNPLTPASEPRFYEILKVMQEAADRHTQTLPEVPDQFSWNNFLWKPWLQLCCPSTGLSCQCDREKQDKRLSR
Assay: Inhibitory activity against estrone sulfatase enzyme
outcomeMeasure: IC50 (nM)
The reply should be a number in nM, with the unit left off.

C[C@]12CC[C@@H]3c4ccc(OS(N)(=O)=O)cc4CCC3[C@@H]1CCC2=O (single isomer, unassigned) [EMATE] :: 0.065

Note: attention shifts to another entry.
What IC50 value was documented for this compound, NS(=O)(=O)Oc1ccc2c(c1)CCCC2 ?
1000
